System: Surinam grass (Brachiaria decumbens)
procedure.text: Test B pre-/postemergence plant response
Type: in vivo
condition.parameters: Postemergence, 31 g ai/ha; 0 to 100 scale (0 no effect, 100 complete control)
property.label: Plant response rating, Surinam Grass
// keep it numeric: no unit symbol after the value

These recorded examples may help you get a feel for the data.
{"columns": ["compound", "system.name", "property.label", "assay.value"],
 "data": [
  ["CCCn1c(-c2cc(F)cc(F)c2)ncc(C(=O)C2=C(O)CCCC2=O)c1=O", "Surinam grass (Brachiaria decumbens)", "Plant response rating, Surinam Grass", 75],
  ["COCCn1c(-c2cccc(F)c2)ncc(C(=O)C2=C(O)CCCC2=O)c1=O", "Surinam grass (Brachiaria decumbens)", "Plant response rating, Surinam Grass", 25]
]}

Please fill in: Plant response rating, Surinam Grass reported for COCCn1c(-c2cccc(F)c2)ncc(C(=O)C2=C(O)C3CCC(C3)C2=O)c1=O (stereo not drawn) = 80

Please fill in: Plant response rating, Surinam Grass reported for CCCn1c(-c2ccsc2)ncc(C(=O)C2=C(O)C3CCC(C3)C2=O)c1=O (stereo not drawn) = 55

Please fill in: Plant response rating, Surinam Grass reported for `CCCn1c(-c2cccc(Br)c2)ncc(C(=O)C2=C(O)CCCC2=O)c1=O` = 40

Please fill in: Plant response rating, Surinam Grass reported for `O=C1CCCC(O)=C1C(=O)c1cnc(-c2ccccc2)n(C2CCCC2)c1=O` = 20

###

System: velvetleaf (Abutilon theophrasti)
procedure.text: Test B pre-/postemergence plant response
Format: in vivo
condition.parameters: Postemergence, 125 g ai/ha; scale 0 to 100 (0 no effect, 100 complete control)
property.label: Plant response rating, Velvetleaf

{"columns": ["structure.smiles", "Plant response rating, Velvetleaf"],
 "data": [
  ["COCCCn1c(-c2cccc(Br)c2)ncc(C(=O)C2=C(O)CCCC2=O)c1=O", 80],
  ["CCCCn1c(-c2cccc(Cl)c2)ncc(C(=O)C2=C(O)CCCC2=O)c1=O", 98],
  ["CCCCn1c(-c2cc(F)cc(F)c2)ncc(C(=O)C2=C(O)CCCC2=O)c1=O", 100],
  ["Cc1ccc(Cl)cc1-n1c(-c2cccc(F)c2)ncc(C(=O)C2=C(O)CCCC2=O)c1=O", 100]
]}

Please fill in: Plant response rating, Velvetleaf reported for `O=C1CCCC(O)=C1C(=O)c1cnc(-c2cc(F)cc(F)c2)n(C2CCCCC2)c1=O` = 100

###

Test system: ragweed (common ragweed, Ambrosia elatior)
procedure.text: Test B pre-/postemergence plant response
Assay type: in vivo
condition.parameters: Postemergence, 125 g ai/ha; visual rating after 13 to 15 days, scale 0 (no effect) to 100 (complete control)
property.label: Plant response rating, Ragweed
// keep it numeric: no unit symbol after the value

These recorded examples may help you get a feel for the data.
{"columns": ["compound", "system.name", "property.label", "assay.value"],
 "data": [
  ["Cc1ccccc1-n1c(-c2ccccc2)ncc(C(=O)C2=C(O)CCCC2=O)c1=O [Compound 12]", "ragweed (common ragweed, Ambrosia elatior)", "Plant response rating, Ragweed", 100],
  ["Cc1ccc(-n2c(-c3ccccc3)ncc(C(=O)C3=C(O)CCCC3=O)c2=O)cc1 [Compound 8]", "ragweed (common ragweed, Ambrosia elatior)", "Plant response rating, Ragweed", 100],
  ["O=C1CCCC(O)=C1C(=O)c1cnc(-c2ccccc2)n(CC2CCCO2)c1=O (stereo not shown) [Compound 59]", "ragweed (common ragweed, Ambrosia elatior)", "Plant response rating, Ragweed", 90]
]}

Please fill in: Plant response rating, Ragweed reported for O=C1CCCC(O)=C1C(=O)c1cnc(-c2ccccc2)n(-c2ccccc2F)c1=O [Compound 26] = 98

###

Tested on: blackgrass (Alopecurus myosuroides)
procedure.text: Test B pre-/postemergence plant response
Assay type: in vivo
condition.parameters: Postemergence, 250 g ai/ha; scale 0 to 100 (0 no effect, 100 complete control); 13 to 15 days
Plant response rating, Blackgrass for assorted molecules
// keep it numeric: no unit symbol after the value

{"columns": ["molecule", "Plant response rating, Blackgrass"],
 "data": [
  ["CCc1ccccc1-n1c(-c2ccccc2)ncc(C(=O)C2=C(O)CCCC2=O)c1=O", 60],
  ["CCCn1c(-c2cccc(C(F)(F)F)c2)ncc(C(=O)C2=C(O)CCCC2=O)c1=O", 65],
  ["CCCn1c(-c2cccc(Cl)c2)ncc(C(=O)C2=C(O)CCCC2=O)c1=O", 40],
  ["O=C(C1=C(O)C2CCC(C2)C1=O)c1cnc(-c2ccsc2)n(CC2CCCO2)c1=O (stereo not drawn)", 30],
  ["O=C1CCCC(O)=C1C(=O)c1cnc(-c2cccs2)n(C2CCCCC2)c1=O", 5]
]}

Alright, here's another molecule for you.
Please fill in: Plant response rating, Blackgrass reported for `COc1ccc(-n2c(-c3ccccc3)ncc(C(=O)C3=C(O)CCCC3=O)c2=O)cc1OC` = 5

###

Plant response rating, Lambsquarters for assorted compounds
Test system: lambsquarters (Chenopodium album)
procedure.text: Test B pre-/postemergence plant response
Type: in vivo
condition.parameters: Postemergence, 31 g ai/ha; 0 to 100 scale (0 no effect, 100 complete control)
// keep it numeric: no unit symbol after the value

These recorded examples may help you get a feel for the data.
{"columns": ["compound", "system.name", "property.label", "assay.value"],
 "data": [
  ["O=C(C1=C(O)C2CCC(C2)C1=O)c1cnc(-c2ccsc2)n(CC2CCCO2)c1=O (centres unmarked) [Compound 229]", "lambsquarters (Chenopodium album)", "Plant response rating, Lambsquarters", 85],
  ["CCCn1c(-c2ccsc2)ncc(C(=O)C2=C(O)C3CCC(C3)C2=O)c1=O (centres unmarked) [Compound 227]", "lambsquarters (Chenopodium album)", "Plant response rating, Lambsquarters", 90],
  ["COCCCn1c(-c2cccc(Br)c2)ncc(C(=O)C2=C(O)CCCC2=O)c1=O [Compound 140]", "lambsquarters (Chenopodium album)", "Plant response rating, Lambsquarters", 45],
  ["COCCn1c(-c2cccc(Cl)c2)ncc(C(=O)C2=C(O)CCCC2=O)c1=O [Compound 147]", "lambsquarters (Chenopodium album)", "Plant response rating, Lambsquarters", 85],
  ["COCCCn1c(-c2cccc(F)c2)ncc(C(=O)C2=C(O)C3CCC(C3)C2=O)c1=O (centres unmarked) [Compound 238]", "lambsquarters (Chenopodium album)", "Plant response rating, Lambsquarters", 100]
]}

Please fill in: Plant response rating, Lambsquarters reported for COCCn1c(-c2ccsc2)ncc(C(=O)C2=C(O)C3CCC(C3)C2=O)c1=O (centres unmarked) [Compound 228] = 98

Please fill in: Plant response rating, Lambsquarters reported for CCc1ccccc1-n1c(-c2ccccc2)ncc(C(=O)C2=C(O)CCCC2=O)c1=O [Compound 255] = 90

Please fill in: Plant response rating, Lambsquarters reported for CCCn1c(-c2cc(F)cc(F)c2)ncc(C(=O)C2=C(O)CCCC2=O)c1=O [Compound 152] = 85

###

Plant response rating, Foxtail, Green for assorted compounds
Test system: green foxtail (Setaria viridis)
procedure.text: Test B pre-/postemergence plant response
Assay type: in vivo
condition.parameters: Postemergence, 250 g ai/ha; scale 0 to 100 (0 no effect, 100 complete control); 13 to 15 days
// keep it numeric: no unit symbol after the value

These recorded examples may help you get a feel for the data.
{"columns": ["compound", "system.name", "property.label", "assay.value"],
 "data": [
  ["CCCCn1c(-c2cccc(F)c2)ncc(C(=O)C2=C(O)C3CCC(C3)C2=O)c1=O (stereo not shown)", "green foxtail (Setaria viridis)", "Plant response rating, Foxtail, Green", 95],
  ["COCCCn1c(-c2cccc(F)c2)ncc(C(=O)C2=C(O)C3CCC(C3)C2=O)c1=O (stereo not shown)", "green foxtail (Setaria viridis)", "Plant response rating, Foxtail, Green", 98],
  ["CCCn1c(-c2cc(F)cc(F)c2)ncc(C(=O)C2=C(O)CCCC2=O)c1=O", "green foxtail (Setaria viridis)", "Plant response rating, Foxtail, Green", 100]
]}

Alright, here's another compound for you.
Plant response rating, Foxtail, Green of `O=C1CCCC(O)=C1C(=O)c1cnc(-c2cc(F)cc(F)c2)n(C2CCCCC2)c1=O` , assay on green foxtail (Setaria viridis), is 98

###

System: morningglory (Ipomoea spp.)
procedure.text: Test A pre-/postemergence plant response
Format: in vivo
condition.parameters: Postemergence, 500 g ai/ha; 0 to 100 scale, 0 = no effect, 100 = complete control; approx. ten days
property.label: Plant response rating, Morningglory
// keep it numeric: no unit symbol after the value

These recorded examples may help you get a feel for the data.
{"columns": ["structure.smiles", "Plant response rating, Morningglory"],
 "data": [
  ["CCCn1c(-c2cc(C)cc(C)c2)ncc(C(=O)C2=C(O)CCCC2=O)c1=O", 100],
  ["Cc1cc(C)cc(-n2c(-c3ccccc3)ncc(C(=O)C3=C(O)CCCC3=O)c2=O)c1", 90],
  ["CCCn1c(-c2ccc(F)cc2)ncc(C(=O)C2=C(O)CCCC2=O)c1=O", 100],
  ["O=C1CCCC(O)=C1C(=O)c1cnc(-c2ccc(Cl)s2)n(-c2ccccc2)c1=O", 60],
  ["CCCCCCc1ncc(C(=O)C2=C(O)CCCC2=O)c(=O)n1-c1ccccc1", 100]
]}

Alright, here's another compound for you.
Please fill in: Plant response rating, Morningglory reported for `CCCCc1ncc(C(=O)C2=C(O)CCCC2=O)c(=O)n1-c1cccc(C)c1` = 100
